measuredOn: Retinoic acid receptor RXR-alpha (Homo sapiens, UniProt P19793)
Sequence (P19793 whole entry): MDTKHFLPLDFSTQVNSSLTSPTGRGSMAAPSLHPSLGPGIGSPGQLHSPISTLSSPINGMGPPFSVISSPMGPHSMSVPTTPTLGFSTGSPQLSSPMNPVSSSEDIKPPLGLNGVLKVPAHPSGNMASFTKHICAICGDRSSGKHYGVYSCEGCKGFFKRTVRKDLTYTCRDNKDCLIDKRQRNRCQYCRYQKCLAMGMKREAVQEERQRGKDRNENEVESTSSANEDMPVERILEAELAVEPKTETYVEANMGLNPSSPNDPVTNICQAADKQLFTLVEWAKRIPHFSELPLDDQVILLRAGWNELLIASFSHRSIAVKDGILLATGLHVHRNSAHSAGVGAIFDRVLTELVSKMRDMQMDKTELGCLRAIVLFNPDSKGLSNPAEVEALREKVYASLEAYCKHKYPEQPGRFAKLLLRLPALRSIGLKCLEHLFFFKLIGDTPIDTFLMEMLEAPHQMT
testMethodNotes: Agonist activity at human RXRalpha expressed in […] cells by luciferase reporter gene assay
observable: pEC50
Keep it numeric: pEC50 is minus log10 of the concentration in mol/L.

Guide cases for pEC50, answers given:
- structureSmilesString: "CCN(c1ccc(C(=O)O)cn1)c1ccc2c(C(F)(F)F)cc(=O)n(CC)c2n1"
  observable: "pEC50"
  val: 6.00
- structureSmilesString: "CCN(c1ccc(C(=O)O)cn1)c1ccc2c(C(F)(F)F)cc(=O)n(C)c2n1"
  observable: "pEC50"
  val: 6.00

Consider the additional compound presented here.
Just so you know, measured pEC50 for CCN(c1ccc(C(=O)O)cn1)c1ccc2c(C(F)(F)F)cc(=O)n(CC(C)C)c2n1 came out at 6.00
